Assignment: determine reported koff for the given binders.
Target: T1, TNFR2-His (Sino Biological, 10417-H08H, NP_001057.1 Met1-Asp257, with multi-histidine tag expressed on … (human, UniProt P20333 23-257))
T1 construct: range 1-257; Bought protein; also called recombinant human TNFR2 protein; TNFR2-His antigen; not shown: C-terminal multi-histidine tag
T1 sequence (looked up): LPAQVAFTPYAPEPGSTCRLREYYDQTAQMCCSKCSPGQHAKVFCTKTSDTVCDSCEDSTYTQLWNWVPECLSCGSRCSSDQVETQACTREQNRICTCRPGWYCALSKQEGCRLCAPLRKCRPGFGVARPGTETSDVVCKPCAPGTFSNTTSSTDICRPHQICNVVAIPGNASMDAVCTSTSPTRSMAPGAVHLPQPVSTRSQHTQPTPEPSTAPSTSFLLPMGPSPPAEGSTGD
Assay: BLI, antibody captured on AHC probe, TNFR2-His in solution
Answers are plain numbers, in s⁻¹.

{"Binder": "11G2huVH5 + huVL2(P07270) (antibody, V domains shown, Humanized 11G2) VH: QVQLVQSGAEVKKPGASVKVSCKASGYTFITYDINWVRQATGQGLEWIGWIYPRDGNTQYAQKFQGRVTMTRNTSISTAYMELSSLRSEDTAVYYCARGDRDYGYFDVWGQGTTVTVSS VL: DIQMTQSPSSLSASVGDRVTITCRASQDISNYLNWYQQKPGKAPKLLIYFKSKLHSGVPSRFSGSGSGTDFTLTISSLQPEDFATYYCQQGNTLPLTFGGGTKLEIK", "koff (s⁻¹)": 0.00265}

Now examine the next entry.
Any idea what koff was measured for 11G2huVH2 + huVL1(P07263) (antibody, V domains shown, Humanized 11G2) VH: QVQLVQSGAEVKKPGASVKVSCKASGYTFITYDINWVRQAPGQGLEWIGWIYPRDGNTQFNENFKGRVTMTTDTSTSTAYMELRSLRSDDTAVYYCARGDRDYGYFDVWGQGTTVTVSS VL: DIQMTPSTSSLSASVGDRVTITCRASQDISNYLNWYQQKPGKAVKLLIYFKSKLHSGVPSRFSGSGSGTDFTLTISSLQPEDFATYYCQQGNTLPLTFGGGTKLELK ?
0.00171

The reported numbers originate from patent US20240392024A1.
